What Km was measured for each of the following?
- target_under_test: UniProtKB P25779
- assay_comment: Cruzain-catalysed hydrolysis of fluorogenic dipeptide-AMC substrates
- Type: biochemical
- run_conditions: pH 7.5, 25 °C, 10% DMSO (v/v)
Where a SMILES comes first, the peptide text is derived from it. The star is where a group is joined. AMC = Cc1cc(=O)oc2cc(N*)ccc12; Cbz = O=C(OCc1ccccc1)*
One number for each entry, in µM.

Record excerpt, results attached:
[
  {
    "compound": "Cc1cc(=O)oc2cc(NC(=O)[C@H](CCCN=C(N)N)NC(=O)[C@H](CC(C)C)NC(=O)OCc3ccccc3)ccc12 [S4, Cbz-Leu-Arg-AMC]",
    "scale_unit": "µM",
    "Km": 2.2
  },
  {
    "compound": "Cc1cc(=O)oc2cc(NC(=O)[C@H](Cc3ccccc3)NC(=O)[C@H](Cc3ccccc3)NC(=O)OCc3ccccc3)ccc12 [S9, Cbz-Phe-Phe-AMC] (Cbz-Phe-Phe-{AMC})",
    "scale_unit": "µM",
    "Km": 0.34
  }
]

// next item, Km requested
Query string: Return reported Km; argument: Cc1cc(=O)oc2cc(NC(=O)[C@H](CCCN=C(N)N)NC(=O)[C@H](Cc3ccccc3)NC(=O)OCc3ccccc3)ccc12 [S1, Cbz-Phe-Arg-AMC, reference compound] (Cbz-Phe-Arg-{AMC})
Result string: 0.89

###

- target_under_test: cruzain (Trypanosoma cruzi, UniProt P25779)
- Sequence (P25779 123-467): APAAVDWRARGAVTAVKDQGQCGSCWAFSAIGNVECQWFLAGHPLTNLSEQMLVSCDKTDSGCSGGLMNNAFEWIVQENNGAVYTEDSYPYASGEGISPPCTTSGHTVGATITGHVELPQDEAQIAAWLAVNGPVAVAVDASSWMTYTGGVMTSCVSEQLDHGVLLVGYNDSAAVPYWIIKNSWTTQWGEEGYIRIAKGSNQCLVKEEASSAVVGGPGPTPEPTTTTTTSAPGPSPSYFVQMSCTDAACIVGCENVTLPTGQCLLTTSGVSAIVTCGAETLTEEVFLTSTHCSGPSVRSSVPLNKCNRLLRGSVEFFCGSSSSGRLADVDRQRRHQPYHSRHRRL
- assay_comment: Cruzain-catalysed hydrolysis of fluorogenic dipeptide-AMC substrates
- Type: biochemical
- run_conditions: pH 7.5, 25 °C, 10% DMSO (v/v)
Where a SMILES comes first, the peptide text is derived from it. [ ]: non-standard residue; d: D form. The star is where a group is joined. hPhe = N[C@@H](CCc1ccccc1)C(=O)O; 4Pal = N[CH](Cc1ccncc1)C(=O)O; AMC = Cc1cc(=O)oc2cc(N*)ccc12; Cbz = O=C(OCc1ccccc1)*
quantity_name: Km (µM)
Answers are plain numbers, in µM.

[
  {
    "compound": "Cc1cc(=O)oc2cc(NC(=O)[C@H](Cc3ccccc3)NC(=O)[C@H](Cc3ccccc3)NC(=O)N3CCN(C)CC3)ccc12 [S11, NMePip-Phe-Phe-AMC]",
    "scale_unit": "µM",
    "Km": 14
  },
  {
    "compound": "Cc1cc(=O)oc2cc(NC(=O)C(Cc3ccncc3)NC(=O)C(Cc3ccccc3)NC(=O)OCc3ccccc3)ccc12 (stereo not drawn) [S5, Cbz-Phe-(4-Pyr)Ala-AMC] (Cbz-Phe-[4Pal]-{AMC}; configuration not given here)",
    "scale_unit": "µM",
    "Km": 3.7
  },
  {
    "compound": "Cc1cc(=O)oc2cc(NC(=O)C(CCc3ccccc3)NC(=O)C(CCCN=C(N)N)NC(=O)OCc3ccccc3)ccc12 (stereo not shown)",
    "scale_unit": "µM",
    "Km": 6.8
  }
]

// next item, Km requested
Query string: Fill in the recorded Km for this compound, with cruzain (Trypanosoma cruzi, UniProt P25779) as test system: Cc1cc(=O)oc2cc(NC(=O)[C@H](CCc3ccccc3)NC(=O)[C@H](Cc3ccncc3)NC(=O)OCc3ccccc3)ccc12 [S8, Cbz-(4-Pyr)Ala-hPhe-AMC] (Cbz-[4Pal]-[hPhe]-{AMC})
Result string: 4.6

###

- target_under_test: cruzain (Trypanosoma cruzi, UniProt P25779)
- assay_comment: Cruzain-catalysed hydrolysis of fluorogenic dipeptide-AMC substrates
- Type: biochemical
- run_conditions: pH 7.5, 25 °C, 10% DMSO (v/v)
Where a SMILES comes first, the peptide text is derived from it. [ ]: non-standard residue; d: D form. The star is where a group is joined. hPhe = N[CH](CCc1ccccc1)C(=O)O; AMC = Cc1cc(=O)oc2cc(N*)ccc12; Cbz = O=C(OCc1ccccc1)*
What Km was measured for each of the following?
Numbers only, in µM.

Record excerpt, results attached:
[
  {
    "molecule": "Cc1cc(=O)oc2cc(NC(=O)C(CCc3ccccc3)NC(=O)C(Cc3ccccc3)NC(=O)N3CCN(C)CC3)ccc12 (stereo not drawn) [S7, NMePip-Phe-hPhe-AMC]",
    "Km [µM]": 3.1
  },
  {
    "molecule": "Cc1cc(=O)oc2cc(NC(=O)[C@H](CCc3ccccc3)NC(=O)[C@H](Cc3ccccc3)NC(=O)OCc3ccccc3)ccc12 [S2, Cbz-Phe-hPhe-AMC] (Cbz-Phe-[hPhe]-{AMC})",
    "Km [µM]": 0.26
  }
]

Query string: Return reported Km; argument: Cc1cc(=O)oc2cc(NC(=O)C(CCc3ccccc3)NC(=O)C(CC(C)C)NC(=O)OCc3ccccc3)ccc12 (stereo not drawn) [S3, Cbz-Leu-hPhe-AMC] (Cbz-Leu-[hPhe]-{AMC}; configuration not given here)
Result string: 0.8

###

- target_under_test: cruzain (Trypanosoma cruzi, UniProt P25779)
- assay_comment: Cruzain-catalysed hydrolysis of fluorogenic dipeptide-AMC substrates
- Format: biochemical
- run_conditions: pH 7.5, 25 °C, 10% DMSO (v/v)
Where a SMILES comes first, the peptide text is derived from it. [ ]: non-standard residue; d: D form. The star is where a group is joined. hPhe = N[CH](CCc1ccccc1)C(=O)O; 4Pal = N[CH](Cc1ccncc1)C(=O)O; AMC = Cc1cc(=O)oc2cc(N*)ccc12; Cbz = O=C(OCc1ccccc1)*
What kcat was measured for each of the following?
Give bare numbers, in s⁻¹.

Record excerpt, results attached:
[
  {
    "molecule": "Cc1cc(=O)oc2cc(NC(=O)C(CCc3ccccc3)NC(=O)C(CC(C)C)NC(=O)OCc3ccccc3)ccc12 (stereo not drawn) [S3, Cbz-Leu-hPhe-AMC] (Cbz-Leu-[hPhe]-{AMC}; configuration not given here)",
    "scale_unit": "s⁻¹",
    "value": 3.0
  },
  {
    "molecule": "Cc1cc(=O)oc2cc(NC(=O)[C@H](Cc3ccccc3)NC(=O)[C@H](Cc3ccccc3)NC(=O)OCc3ccccc3)ccc12 [S9, Cbz-Phe-Phe-AMC] (Cbz-Phe-Phe-{AMC})",
    "scale_unit": "s⁻¹",
    "value": 0.26
  }
]

// next item, kcat requested
Query string: Return reported kcat; argument: Cc1cc(=O)oc2cc(NC(=O)C(Cc3ccncc3)NC(=O)C(Cc3ccccc3)NC(=O)OCc3ccccc3)ccc12 (stereo not drawn) [S5, Cbz-Phe-(4-Pyr)Ala-AMC] (Cbz-Phe-[4Pal]-{AMC}; configuration not given here)
Result string: 7.5

###

What kcat rel was measured for each of the following?
- target_under_test: cruzain (Trypanosoma cruzi, UniProt P25779)
- assay_comment: Cruzain-catalysed hydrolysis of fluorogenic dipeptide-AMC substrates
- Assay type: biochemical
- run_conditions: relative to S1 Cbz-Phe-Arg-AMC; S6 and S12 from 2% DMSO data
Where a SMILES comes first, the peptide text is derived from it. [ ]: non-standard residue; d: D form. The star is where a group is joined. hPhe = N[C@@H](CCc1ccccc1)C(=O)O; 4Pal = N[C@@H](Cc1ccncc1)C(=O)O; AMC = Cc1cc(=O)oc2cc(N*)ccc12; Cbz = O=C(OCc1ccccc1)*
One number for each entry.

Record excerpt, results attached:
[
  {
    "compound": "Cc1cc(=O)oc2cc(NC(=O)[C@H](CCc3ccccc3)NC(=O)[C@H](Cc3ccncc3)NC(=O)OCc3ccccc3)ccc12 [S8, Cbz-(4-Pyr)Ala-hPhe-AMC] (Cbz-[4Pal]-[hPhe]-{AMC})",
    "kcat rel": 0.55
  },
  {
    "compound": "Cc1cc(=O)oc2cc(NC(=O)[C@H](Cc3ccccc3)NC(=O)[C@H](Cc3ccccc3)NC(=O)N3CCN(C)CC3)ccc12 [S11, NMePip-Phe-Phe-AMC]",
    "kcat rel": 0.29
  }
]

Provide kcat rel values for the following items, in order.
1. Cc1cc(=O)oc2cc(NC(=O)[C@H](CCCN=C(N)N)NC(=O)[C@H](CC(C)C)NC(=O)OCc3ccccc3)ccc12
2. Cc1cc(=O)oc2cc(NC(=O)[C@H](CCCN=C(N)N)NC(=O)[C@H](Cc3ccccc3)NC(=O)OCc3ccccc3)ccc12 [S1, Cbz-Phe-Arg-AMC, reference compound] (Cbz-Phe-Arg-{AMC})
3. Cc1cc(=O)oc2cc(NC(=O)[C@H](CCCN=C(N)N)NC(=O)[C@H](CCCN=C(N)N)NC(=O)OCc3ccccc3)ccc12 [S6, Cbz-Arg-Arg-AMC] (Cbz-Arg-Arg-{AMC})

Result string:
1: 0.88; 2: 1.00; 3: 0.75

###

- target_under_test: cruzain (Trypanosoma cruzi, UniProt P25779)
What Ki was measured for each of the following?
Answers are plain numbers, in µM.

[
  {
    "compound": "C[n+]1ccccc1/C=C/[C@H](CCc1ccccc1)NC(=O)[C@H](Cc1ccccc1)NC(=O)OCc1ccccc1 [Compound 15]",
    "target_under_test": "cruzain (Trypanosoma cruzi, UniProt P25779)",
    "Ki [µM]": 0.6
  }
]

// next item, Ki requested
Query string: Return reported Ki; argument: O=C(N[C@@H](Cc1ccccc1)C(=O)NC(CCc1ncccn1)Cc1ccccc1)OCc1ccccc1 (stereo in doubt) [Compound 27]
Result string: 22
